Measured kon accompanies every entry in the list below.
- experimental system: SARS-CoV-2 spike receptor-binding domain, Omicron BA.2 variant (amino acids 331-529), biotinylated (SARS-CoV-2 Omicron BA.2, G504D | S371F | S375F | T376A | D405N | R408S | K417N | N440K | S477N | T478K | …, biotin (RBD expression vector co-expressed with BirA-Flag, 100 μM biotin added))
- assay: BLI
- cond: both partners purified
Expressed in M⁻¹ s⁻¹, but write only the number.

Consider the following illustrative entries.
NIV-10 Fab (Fab, V domains shown) VH: EVQLVESGGGLVQPGGSLRLSCAASGFTFYSYWMTWVRQAPGKGLEWVANIKHDESESHYVDSVRGRFTISRDNAKNSVYLQMKGLRAEDTAVYYCARDGGYNILTAYYHAPSYWGQGTLVTVSS VL: QSALTQPASVSGSPGQSITISCTGTSSDVGGYNFVSWYRQYPGKAPQLMIYDVSRRPSGDSDRFSGSKSGNTASLTISGLQAEDEAEYHCSSYTGRSPYVVFGGGTKVTVL; 84100
NIV-11 Fab (Fab, V domains shown) VH: QLVQSGPEVKKPGTSVKVSCKASGFTFYYSAVQWVRQARGQRLEWLGWMAVGSGKANYAQKFQERLTLTRDMSTSTAYMELSSLRSEDTAVYYCAAPNCTGGSCYDGFNLWGQGTVVTVSS VL: EIVLTQSPGTLSLSPGDRAILSCRASQTVNSNYLAWYQQKPGQAPRLLIYGTSSRATGIPDRFSGSGSGTDFTLTISRLEPEDFAVYYCQQYGSSPWLFGQGTKVEIK; 322000
NIV-8 Fab (Fab, V domains shown) VH: EVQLVESGGGVVQPGRSLRLSCAASGFKFSKFAMHWVRQAPGKGPEWVAVISYDGNQYHSADSVKGRFTISRDNSFNTLYLQMNSLGPEDTAVYYCARDGPDTSGYYANIYFDFWGQGTLVTVSS VL: QSVLTQPPSVSGAPGQRVTISCTGSSSNIGAGYDVHWYQQLPGRAPKLLIFDNNNRPSGVPDRFSGSKSGTSASLAITGLQTEDEAYYYCQSYDNSLILAVFGGGTKVTVL; 103000

The recorded kon for entry NIV-13 Fab (Fab, V domains shown) VH: EVQLLESGGGLVQPGGSLRLSCAASGFTFSRYALSWVRQAPGKGLEWVSAISGAAITTYYADSVKGRFTISRDDSRNTLFMQMDSLRAEDTAVYYCAKGDYYDSSGYLAEYFPHWGQGTLVTVSS VL: SYELTQPPSVSVSPGQTARITCFADALPKQHAYWYQQKAGQAPVLVIFKDTERPSGIPKRFSGSRSGATVTLTISGVQAEDEADYYCQSTDISGVLFGGGTKLTVL equals 247000

Origin of measurements: paper PMC10349087
